# Method Summary: yeast display, Sf9 membrane polyspecificity reagent, FACS + sequencing; frameworks hold sequencing errors
Measurement Name: polyreactivity (PSR sort gate)

{"columns": ["Sequence Text", "polyreactivity (PSR sort gate)"],
 "data": [
  ["QVHLVESGGGLVQAGGSLRLSCAASGSIFDEYAMGWYRQAPGKERELVAAITSGGSTNYADSVKGRFTISRDNAKNTVYLQMNSLKPEDTAVYYCNVARQAKGMGYWGQGTEVTVSS", "low polyreactivity"],
  ["QVQLVESGGGLVQAGGSLRLSCAASGSTSLYYAMGWYRPAPGKEREFVAAITWSGGSTYYADSVKGRFTISRDNAKNTVYLQMNSLKPEDTAVYYCAARSYGYSAGYYWGQGTQVTVSS", "high polyreactivity"],
  ["QVQLVESGGGLVQAGGSLRLSCAASGSIFDPYAMGWYRQAPGKERELVAAISGSGGSTYYADSVKGRFTISRDNAKNTVYLQMNSLKPEDTALYFCAAADAWWGRRYKYYHWGQGPQVTVSS", "low polyreactivity"],
  ["QVQLVESGGCLVQAGGSLRLICAASGFIFTPYAMGWYRQAPGKERELVAAIRNSDGSTYYADSVKRRFTISRDTAKHSVYLQMNSLKPEDTAVFYCAKRYRGEPGGTYGYWGQGTQVNVSS", "high polyreactivity"],
  ["QVQLVESGGGLVQAGGSLRLSCAASGLTFWYYGMGWYRQAAGKERELDAAISKTGGRTYYADSVKGRFTISRDNAKNTVYLQMNSLKPEDTAVYYCAADTDVLKGTTGFEYWGQGTQVTVSS", "low polyreactivity"]
]}

Respectfully, I request polyreactivity (PSR sort gate) for each entry included below.
1. HVQLVESGGGLVQAGGSLRLSCAASGITFPIYAMGWYRQAPGKEREFVAAINQRGGSTYYADSVKGRFTISRDNAKNTVYLQMNSLKPEDTAVDYCAAENGFNSLSRSGLHYWGQGTQVTVSS
2. QDQLVESGGGLVQAGGSLRLSCAASGSIFARYAMGWYRQAPGKERELVAAINSTVSTNYADSVKGRFTISRDNAKNTVYLQMNSLKPEDTAVYYCAVDIVRGGRDSWGQGTQVTVSS

-- reply
1: low polyreactivity; 2: low polyreactivity

Lab note: each sequence below needs its polyreactivity (PSR sort gate) filled in.
1. QVQLVESGGGLVQAGGSLRLSCAASGGTFYGYAMGWYRQAPGKERELVAAITSGDSTNYADSVKGRFTISRDNAKNTVYLQMNNLKPEDTAVYYCAAGDPTLLNESFDYWGQGTQVTVSS
2. QVQLVESGGGLVQAGGSRRLSCAAAGSTFGVIVMGWYREAPGKEREVVAAITKSGGSTYYADSVKGRFTISRDNAKNTVYLQMNSLKPEDTAVYFCIDAWGREYDYWGQGTQVHVSS
3. QVQLVESGGGLVQAGGSLRLSCAASGSTFTPYAMGWHRQAPGKERELVAAITIRGGSTYYADSVKGRFTISRDNAKNTVYLQMYSLKPEDTAVYYCAREYIFSVYDYSTSYYYWGQGTQVTVSS
4. QVQLVESGGGLVQAGGSLRLSCAASGSTFVRYVMGWYRQAPGKERELVAAISRRGGSTYYADSVKGRFTIARDNAKNTVYLQMNSLKPDDTAVYYCAAVYRLRGAFSRGYWGQGTQVTVSS

-- reply
["low polyreactivity", "high polyreactivity", "low polyreactivity", "high polyreactivity"]
